# test: amyloid nucleation score (Sup35N fusion, yeast selection) (log enrichment); library NNK1; higher = more nucleation; inactive = no reads after selection;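 note: zero at mode of non-aggregating sequences after 7 days selection at 30°C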
metric: amyloid nucleation score

substance	metric	result
LNNLWNLGLTGLQGGNMYKI	amyloid nucleation score	inactive
VVLGLWV	amyloid nucleation score	inactive
TLPYSKKSLTQFRRGAKICY	amyloid nucleation score	0.588
YIIVFDVNWFVKFGCFPRGS	amyloid nucleation score	inactive

---

# test: amyloid nucleation score (Sup35N fusion, yeast selection) (log enrichment); library NNK2; higher = more nucleation; inactive = no reads after selection
Reported amyloid nucleation score by item:
Enter a number only.

The examples below pair each entry with its known result.
substance	amyloid nucleation score
HNTAMGLELVPQKKNGVK	-0.06
LTFNLLSTLTFVRVLVPPLA	0.803
SLPIWVRSRVEGLQERISWL	0.364
VSCTWFGS	0.797
MWIHYKVFRCWTVRAEKVTG	4.29
VMGDWAFSGFSNSNFS	-0.931
RNHFLLCFLRCNEEYAQVRG	3.69
HTKMTIWNVVQC	-0.517

So what's the measured amyloid nucleation score for this one? CMFFCYYLWMMRMVWSVTWS -0.589

So what's the measured amyloid nucleation score for this one? RVMMSRISYSLSCVSADKVR 0.288

So what's the measured amyloid nucleation score for this one? YIIFGSRLVDRGSLQ 2.95

---

# test: amyloid nucleation score (Sup35N fusion, yeast selection) (log enrichment); library NNK3; higher = more nucleation; inactive = no reads after selection
metric: amyloid nucleation score

The examples below pair each entry with its known result.
sequence_input	amyloid nucleation score
FNVFLSLATGISDGYYMLTA	inactive
FISGVYMKCIGCSS	inactive
FTTCMNYIRRLNRKAPNKCR	inactive
RLMLLVTPAISFMSF	inactive
PVLSDNYLTDFAFCYQYYMS	inactive

So what's the measured amyloid nucleation score for this one? LGLISIAESRRLSRSDSMWW inactive

So what's the measured amyloid nucleation score for this one? EFKQSSWY inactive

So what's the measured amyloid nucleation score for this one? LKRLHFKSGDMSGQRQFRGS inactive

So what's the measured amyloid nucleation score for this one? TFFNFVDGTSVWRFAGRHIY inactive

So what's the measured amyloid nucleation score for this one? SLYTARVFGVNYHFVTSKFF inactive

So what's the measured amyloid nucleation score for this one? GKVATHSIHDYFELSMTKGC inactive

---

# test: amyloid nucleation score (Sup35N fusion, yeast selection) (log enrichment); library NNK1; higher = more nucleation; inactive = no reads after selection
The following ranges of amyloid nucleation score define the classes used here: lower segment = under -0.08, middle segment = from -0.08 up to 0.8, upper segment = 0.8 and over

Using the reported amyloid nucleation score, which band applies to PGCIICRVMTEANSRCLVRA ? middle segment

---

# test: amyloid nucleation score (Sup35N fusion, yeast selection) (log enrichment); library NNK3; higher = more nucleation; inactive = no reads after selection
metric: amyloid nucleation score

The examples below pair each entry with its known result.
substance	metric	result
VVWLDNKDVLTWHARCLCPM	amyloid nucleation score	inactive
MPKAGVSTVSLSHRKVLTLP	amyloid nucleation score	0.174
YIWLKGNIRRSQWLLSLPFM	amyloid nucleation score	inactive
VAGLSRHIRIFHYYHSRARF	amyloid nucleation score	inactive
CYLSSTGVVYAGYVYI	amyloid nucleation score	inactive

So what's the measured amyloid nucleation score for this one? LRQSTSMPCNFCIYLEERKD 1.43

So what's the measured amyloid nucleation score for this one? FDLETSLL inactive

---

# test: amyloid nucleation score (Sup35N fusion, yeast selection) (log enrichment); library NNK3; higher = more nucleation; inactive = no reads after selection
metric: amyloid nucleation score

The examples below pair each entry with its known result.
substance	amyloid nucleation score
MRYSFRCF	inactive
SVSVVKSSEILSSMGPCGGT	inactive
CLPPKS	inactive
IYGNFS	inactive
LYRSMH	inactive

So what's the measured amyloid nucleation score for this one? VTICISPAHLFAS inactive

So what's the measured amyloid nucleation score for this one? VTPVFMIWAS inactive

So what's the measured amyloid nucleation score for this one? GLKFMRNVSTFRYLRRKTDY inactive

So what's the measured amyloid nucleation score for this one? VSGSKWQLREGVAKYMMCRY inactive

So what's the measured amyloid nucleation score for this one? SSKASSFVFMACGPGTEVIG inactive

---

# test: amyloid nucleation score (Sup35N fusion, yeast selection) (log enrichment); library NNK2; higher = more nucleation; inactive = no reads after selection
Reported amyloid nucleation score by item:
Enter a number only.

substance	metric	readout_number
LYPCYYCRAEKVHVRLDFTR	amyloid nucleation score	-0.517
LSSGLLSLFALKQCF	amyloid nucleation score	-0.669
QGVDNGDRGRGRNLWASMRR	amyloid nucleation score	1.34
GLDPRCNNTPVTLYVLSPWV	amyloid nucleation score	-0.588
QWIAGVYV	amyloid nucleation score	3.23

So what's the measured amyloid nucleation score for this one? RRKVCYTSQVRRLVNQRNVS -1.11

So what's the measured amyloid nucleation score for this one? RPTAIPAHLIVFSEFCEAEW 0.739

So what's the measured amyloid nucleation score for this one? TICDTLGYLTRSWYLSYESS -0.545

So what's the measured amyloid nucleation score for this one? RVLLHSLRKYLIHDCDVYRA -0.474

So what's the measured amyloid nucleation score for this one? RKRVVSQEPCL -0.996

So what's the measured amyloid nucleation score for this one? LSFIFL 4.26

---

# test: amyloid nucleation score (Sup35N fusion, yeast selection) (log enrichment); library NNK1; higher = more nucleation; inactive = no reads after selection
Tick yes if amyloid nucleation score is -0.2 or greater. Tick no if amyloid nucleation score is less than -0.2.

Completed entries (count: 8):
substance	class
MSNIVALHCGSFFTDYECIW	yes
KWVKEALIA	no
KLYLVVRMTGQPPSGMACVL	yes
PSRWRYYGSYGDLILICSGS	no
GTFDSN	yes
NLRYSFFFNSDNSRVWECS	yes
FWLFSGLCNRFNTGYDFLKS	yes
SLGIHPHVDKLLYRRFQLDY	no

Test whether the substance YIMSGRFTNY records amyloid nucleation score of -0.2 or higher. yes

Test whether the substance ISSQFGAKTIFPRSVPPQAI records amyloid nucleation score of -0.2 or higher. no

Test whether the substance RMERGKNLQMWEGQEVGAEN records amyloid nucleation score of -0.2 or higher. no

Test whether the substance VLEYPSTSAARFSHRVKRK records amyloid nucleation score of -0.2 or higher. yes

Test whether the substance GGDGVKVVIGLHGWFASGYL records amyloid nucleation score of -0.2 or higher. yes

Test whether the substance LTYLMWRRYSNIFQTSCSCL records amyloid nucleation score of -0.2 or higher. yes

Test whether the substance NAVITESLIDKAPVGSNWDT records amyloid nucleation score of -0.2 or higher. no

Test whether the substance GDFKTRLFSCLDSRLILGRG records amyloid nucleation score of -0.2 or higher. no

Test whether the substance SIMNISVAYCGSM records amyloid nucleation score of -0.2 or higher. yes

Test whether the substance SRCLMRMTAPQVQEGACAVC records amyloid nucleation score of -0.2 or higher. no

Test whether the substance YNWVGIDRMGFYTFSVGLVC records amyloid nucleation score of -0.2 or higher. no

Test whether the substance RVILFFRFIAILEDCATVSF records amyloid nucleation score of -0.2 or higher. no

Test whether the substance VCRGGSSFLLNTKLVNT records amyloid nucleation score of -0.2 or higher. yes

Test whether the substance WWDHVWGVR records amyloid nucleation score of -0.2 or higher. yes

Test whether the substance WFIPNKGTYREAYFLSCLGS records amyloid nucleation score of -0.2 or higher. no

Test whether the substance YYTCGMYPIYRCCLRTMYSA records amyloid nucleation score of -0.2 or higher. no

Test whether the substance SNWYRPTDAARLSLSYSRGG records amyloid nucleation score of -0.2 or higher. no

Test whether the substance DRWWILNGTTDLSLGWVLEC records amyloid nucleation score of -0.2 or higher. yes

---

# test: amyloid nucleation score (Sup35N fusion, yeast selection) (log enrichment); library NNK1; higher = more nucleation; inactive = no reads after selection
metric: amyloid nucleation score

The examples below pair each entry with its known result.
sequence_input	metric	result
TKQFEPFCLRLSVVMLLLQE	amyloid nucleation score	0.034
DCRMFDFLA	amyloid nucleation score	-0.444
MWVYFVLCKKVAEGVCFIDT	amyloid nucleation score	0.996

Please find the next sequence below.
So what's the measured amyloid nucleation score for this one? FRLLGLTR 0.087

---

# test: amyloid nucleation score (Sup35N fusion, yeast selection) (log enrichment); library NNK1; higher = more nucleation; inactive = no reads after selection
metric: amyloid nucleation score

substance	amyloid nucleation score
NSGRVNTLWFCLSDTMLVTS	inactive
YMILLSLGVFFTPVPDYFAQ	-0.385
REDPIALGSRWTRPISKTLG	0.734
LLNQFLTRSASYTRGTESID	0.295

So what's the measured amyloid nucleation score for this one? YNLYRH 0.406

So what's the measured amyloid nucleation score for this one? QYNTLCFGMSTGYLYLNISS 2.83

So what's the measured amyloid nucleation score for this one? WVSMKVVGVKHSGLDWRIL 0.012

So what's the measured amyloid nucleation score for this one? RACYTCVPVSGSRMSVRNLW 3.19

So what's the measured amyloid nucleation score for this one? ANFAIFWSFYRGWCSFKIQS 0.871

So what's the measured amyloid nucleation score for this one? NRQSNSVVYNARQETFIRHL 3.39

So what's the measured amyloid nucleation score for this one? VSSHSMGFIVSVVMTCEYRS 1.23

Where do the numbers come from? From the supplement of paper PMC12042874.
